Reference source: patent US12187709B2

study-system: Human Cbl-b (residues 40-426) (Homo sapiens (Human), UniProt Q13191)
Sequence (Q13191 40-426): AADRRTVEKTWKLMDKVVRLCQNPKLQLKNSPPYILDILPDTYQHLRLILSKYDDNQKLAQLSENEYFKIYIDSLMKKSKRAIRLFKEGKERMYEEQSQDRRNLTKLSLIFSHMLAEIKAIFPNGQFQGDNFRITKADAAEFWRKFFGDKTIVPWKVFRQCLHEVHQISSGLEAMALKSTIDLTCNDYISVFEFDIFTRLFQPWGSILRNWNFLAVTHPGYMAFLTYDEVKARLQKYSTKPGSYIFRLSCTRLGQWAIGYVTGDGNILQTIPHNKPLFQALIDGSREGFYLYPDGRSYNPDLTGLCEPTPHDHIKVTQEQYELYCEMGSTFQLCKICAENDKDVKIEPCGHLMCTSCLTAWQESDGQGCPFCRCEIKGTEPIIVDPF
test-protocol: Cbl-b SPR assay
Format: binding
measurement-setup: C-cbl SPR Kd vs Cbl-b SPR Kd
quantity: Fold of selectivity (×)

Worked cases, answers included:
Request: Fold of selectivity, test system Human Cbl-b (residues 40-426) (Homo sapiens (Human), UniProt Q13191), entry Cn1cnnc1[C@]1(c2cccc(N3Cc4c(cc(CNC5(C)CCC5)cc4C(F)(F)F)C3=O)c2)C[C@@]2(CCO2)C1 [Compound 109] 7.0

Please tell me: Fold of selectivity of Cn1cnnc1C1(c2cccc(N3Cc4c(cc(CNC5(C)CCC5)cc4C(F)(F)F)C3=O)c2)CC(F)(F)C1 [Compound 61] , system Human Cbl-b (residues 40-426) (Homo sapiens (Human), UniProt Q13191)? 5.2

Provide the documented Fold of selectivity with Human Cbl-b (residues 40-426) (Homo sapiens (Human), UniProt Q13191) as the system for Cn1cnnc1[C@H](c1cccc(N2Cc3c(cc(CNC4(C)CCC4)cc3C(F)(F)F)C2=O)c1)C1(F)COC1 (single isomer, unassigned) [Compound 381] 6.0

1: CO[C@H]1C[C@](c2cccc(N3Cc4c(cc([C@@H](C)NC5(C)CCC5)cc4C(F)(F)F)C3=O)c2)(c2nncn2C)C1 (single isomer, unassigned) [Compound 184]
2: Cn1cnnc1C1(c2cccc(N3Cc4c(cc(CNC5(C)CCC5)cc4C(F)(F)F)C3=O)c2)CCOCC1 [Compound 282]
3: CO[C@H]1C[C@](c2cccc(N3Cc4c(cc([C@H](C)NC5(C)CCC5)cc4C(F)(F)F)C3=O)c2)(c2nncn2C)C1 (single isomer, unassigned) [Compound 185]
Sort (3 molecules) by Fold of selectivity: min first. State the ranking by listing the labels in the requested order. 1, 2, 3

====

study-system: UniProt:Q13191
test-protocol: Cbl-b LCK Ub TR-FRET assay (Cbl-b Lck HTRF)
Format: biochemical
measurement-setup: Cbl-b LCK Ub TR-FRET
pIC50: −log10 of the molar value.
quantity: pIC50

Form field: pIC50 recorded for CO[C@]1(C)C[C@@](c2cccc(N3Cc4c(cc(CNC5(C)CCC5)cc4C(F)(F)F)C3=O)c2)(c2nncn2C)C1 with UniProt:Q13191 (enter value) 7.89

A: Cn1cnnc1[C@@](O)(c1ccccc1)c1cccc(N2Cc3c(cc(CNC4(C)CCC4)cc3C(F)(F)F)C2=O)c1 (single isomer, unassigned)
B: Cn1cnnc1C1(c2cccc(N3Cc4c(cccc4C(F)(F)F)C3=O)c2)CC2(COC2)C1
C: Cn1cnnc1[C@H](c1cccc(N2Cc3c(cc(CNC4(C)CCC4)cc3C(F)(F)F)C2=O)c1)[C@H]1C[C@H](C)C1 (single isomer, unassigned)
D: Cn1cnnc1[C@]1(c2cccc(N3Cc4c(cc(CNC5(C)CCC5)cc4C(F)(F)F)C3=O)c2)C[C@H](Cl)C1
E: CO[C@H]1C[C@@](c2cc(NC3CCCC3)nc(N3Cc4c(cc(CNC5(C)CCC5)cc4C(F)(F)F)C3=O)c2)(c2nncn2C)C1 [Compound 69]
Exam item: list the entries in increasing order of pIC50. Please express your ranking as an ordered list of the labels. A, B, C, E, D

1: Cn1cnnc1[C@H](c1cccc(N2Cc3c(cc(CNC4(C)CCC4)cc3C(F)(F)F)C2=O)c1)C1CC2(COC2)C1
2: CO[C@H]1C[C@@](c2cc(NC3CCCC3)cc(N3Cc4c(cc(CNC5(C)CCC5)cc4C(F)(F)F)C3=O)c2)(c2nncn2C)C1
Of the pair 1 and 2 , name the member with the lesser recorded pIC50. Label of pick, please. 1
(1: 4.96, 2: 7.09)

A: CO[C@H]1C[C@](O)(C(c2cccc(N3Cc4c(cc(CNC5(C)CCC5)cc4C(F)(F)F)C3=O)c2)c2nncn2C)C1 (single isomer, unassigned) [Compound 367]
B: Cn1cnnc1[C@]1(c2cccc(N3Cc4c(cc(CNC5(C)CCC5)cc4C(F)(F)F)C3=O)c2)C[C@H](C)C1
Please indicate which has the smaller reported pIC50: A , or B . I would appreciate it if you answered with the label of your choice. A

A: Cn1cnnc1C1(c2cccc(N3Cc4c(cc([C@H](CO)NC5(C)CCC5)cc4C(F)(F)F)C3=O)c2)CCC1 (single isomer, unassigned)
B: CO[C@H]1C[C@](c2cccc(N3Cc4c(cc(CN5CCN(C)C[C@@H]5C(C)C)cc4C(F)(F)F)C3=O)c2)(c2nncn2C)C1
Please indicate which item has the smaller measured pIC50: A versus B Refer to your chosen entry by its label in the reply. B
(B: 7.74, A: 8.00)
